Target: KCNQ2/3 channels (Homo sapiens, UniProt O43525+O43526)
Construct: expressed in transfected cells
Sequence (O43526 whole entry): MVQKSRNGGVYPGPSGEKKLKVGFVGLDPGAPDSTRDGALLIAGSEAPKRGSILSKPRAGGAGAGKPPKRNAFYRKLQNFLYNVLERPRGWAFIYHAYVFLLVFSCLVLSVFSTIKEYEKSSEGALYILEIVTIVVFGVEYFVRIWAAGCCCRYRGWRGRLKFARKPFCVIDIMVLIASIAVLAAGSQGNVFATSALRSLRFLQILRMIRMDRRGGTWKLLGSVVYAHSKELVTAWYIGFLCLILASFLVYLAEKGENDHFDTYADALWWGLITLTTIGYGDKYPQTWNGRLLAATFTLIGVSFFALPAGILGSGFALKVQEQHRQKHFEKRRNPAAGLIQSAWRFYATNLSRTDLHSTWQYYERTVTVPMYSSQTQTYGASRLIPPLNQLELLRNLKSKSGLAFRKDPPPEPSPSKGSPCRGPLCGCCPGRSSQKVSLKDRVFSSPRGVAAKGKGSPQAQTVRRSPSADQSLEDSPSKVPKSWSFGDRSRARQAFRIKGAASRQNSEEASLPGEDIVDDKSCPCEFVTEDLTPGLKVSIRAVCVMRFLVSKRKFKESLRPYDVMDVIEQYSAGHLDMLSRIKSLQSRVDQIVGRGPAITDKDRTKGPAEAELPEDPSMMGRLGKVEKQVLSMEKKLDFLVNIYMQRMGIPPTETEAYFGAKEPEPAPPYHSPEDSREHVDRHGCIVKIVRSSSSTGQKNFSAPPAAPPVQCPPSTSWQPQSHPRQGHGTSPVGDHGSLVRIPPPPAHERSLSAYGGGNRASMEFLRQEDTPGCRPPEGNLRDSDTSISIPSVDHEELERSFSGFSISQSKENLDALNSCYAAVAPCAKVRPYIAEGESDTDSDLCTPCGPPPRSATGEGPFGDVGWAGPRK
Sequence (O43525 whole entry): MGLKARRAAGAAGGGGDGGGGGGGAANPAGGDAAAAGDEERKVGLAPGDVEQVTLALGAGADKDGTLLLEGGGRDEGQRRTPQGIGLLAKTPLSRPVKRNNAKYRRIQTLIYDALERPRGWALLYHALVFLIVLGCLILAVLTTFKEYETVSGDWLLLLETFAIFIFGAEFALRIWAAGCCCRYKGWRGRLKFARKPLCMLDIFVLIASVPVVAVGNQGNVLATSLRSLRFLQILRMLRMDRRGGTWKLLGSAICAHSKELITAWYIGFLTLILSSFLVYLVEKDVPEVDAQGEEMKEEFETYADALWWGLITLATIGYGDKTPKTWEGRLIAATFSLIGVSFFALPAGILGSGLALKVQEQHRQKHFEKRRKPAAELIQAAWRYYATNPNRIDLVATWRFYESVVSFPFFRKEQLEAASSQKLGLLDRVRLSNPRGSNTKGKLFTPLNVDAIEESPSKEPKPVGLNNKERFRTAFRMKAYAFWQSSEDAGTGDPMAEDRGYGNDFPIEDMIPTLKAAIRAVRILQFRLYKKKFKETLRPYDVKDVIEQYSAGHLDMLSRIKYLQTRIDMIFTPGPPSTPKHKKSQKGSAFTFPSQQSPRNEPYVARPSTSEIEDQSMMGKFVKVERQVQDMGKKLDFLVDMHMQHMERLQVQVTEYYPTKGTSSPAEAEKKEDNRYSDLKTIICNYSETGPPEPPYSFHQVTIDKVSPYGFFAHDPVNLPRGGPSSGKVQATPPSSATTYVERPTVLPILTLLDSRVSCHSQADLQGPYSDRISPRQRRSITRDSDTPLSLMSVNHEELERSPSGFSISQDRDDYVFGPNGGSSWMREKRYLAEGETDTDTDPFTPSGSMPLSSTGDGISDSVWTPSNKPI
Assay: Fluorescence assay using a voltage sensitive dye (fluorimetry)
Type: cell-based
Details: CHO-K1 cells expressing KCNQ2/3; IC50 where % efficacy is negative; read-out: Fluorimetry EC50/IC50
measurementType: EC50 (nM)
Respond numerically; units are nM and should not be typed.

// lookup EC50 for CSc1nc(N2CCOCC2)cc(C)c1C(=O)NCc1ccc(F)c(F)c1
152

Entry under review: CCSc1nc(N2CCOCC2CC)cc(C)c1C(=O)NCc1cccc(F)c1 (centres unmarked) . Reported EC50?
54

GET /values?readout=EC50&item= Cc1cc(N2CCOCC2)nc(N2CCCC2)c1C(=O)NCc1cccc(F)c1
308

Please look up its EC50: CCSc1nc(N2CCOCC2)cc(COC)c1C(=O)NCc1cccc(F)c1
729

EC50 lookup needed for CCSc1nc(N2CC3(COC3)C2)cc(C)c1C(=O)NCc1cccc(F)c1 , thanks.
12100

Give its EC50 value. Item: COc1nc(N2CCOC[C@H]2C)cc(C)c1C(=O)NCCCC(F)(F)F
469

// query EC50 value for entry CCOc1nc(N2CCOCC2)cc(C)c1C(=O)NCc1cccc(F)c1
219

Entry CCSc1nc(N(CCCOC)Cc2ccc(F)cc2)cc(C)c1C(=O)NCc1cccc(F)c1 : reported EC50 = ?
320

What EC50 value was documented for this molecule, CCN(C)c1nc(N2CCOCC2)cc(C)c1C(=O)NCCCC(C)(C)C ?
284

EC50 for Cc1cc(N2CCOCC2)nc(C2CC2)c1C(=O)NCc1ccc(C(F)(F)F)cc1 ?
96

// EC50 lookup, key: CCSc1nc(N2CCOCC2)cc(C)c1C(=O)NCCC(C)(C)C
1400

Which EC50 value belongs to CCSc1nc(N2CCS(=O)(=O)CC2)cc(C)c1C(=O)NCc1cccc(F)c1 ?
4590

Fill in: EC50 of CCSc1nc(N2CCOCC2)cc(C)c1C(=O)NCc1ccc(F)c(COC)c1 is ___
451

Item CCSc1nc(N(C)C2CCCC(OC)C2)cc(C)c1C(=O)NCc1cccc(F)c1 (centres unmarked) has what recorded EC50?
178

Query: EC50; subject: CCSc1nc(N2CCO[C@@H](COC)C2)cc(C)c1C(=O)NCc1cccc(F)c1
3660

Please give the measured EC50 for this molecule: CCSc1nc(N2CCOCC2)cc(C)c1C(=O)NCc1ccc(N(C)C)cc1
3620

Entry under review: CCSc1nc(N2CC3CCC(C2)O3)cc(C)c1C(=O)NCc1cccc(F)c1 . Reported EC50?
282

Return reported EC50; argument: CCSc1nc(N(C)C2CCOC2)cc(C)c1C(=O)NCc1cccc(F)c1 (centres unmarked)
767

Return reported EC50; argument: COc1nc(N2CCOC[C@H]2C)cc(C)c1C(=O)NCc1cccc(F)c1
224

Looking for the measured EC50 of CCN(C)c1nc(N2CCOCC2)cc(C)c1C(=O)NCc1ccc(C(F)(F)F)cc1 , can you help?
343

Which measured EC50 value corresponds to CCSc1nc(N2CCOCC2)cc(C)c1C(=O)NCCCc1cccnc1 ?
9380

Look up EC50 for this molecule: CCC(C)c1nc(N2CCOCC2)cc(C)c1C(=O)NCc1ccc(Cl)cc1 (centres unmarked)
41

Quick one: EC50 for CCSc1nc(N(C)C)cc(C)c1C(=O)NCCCC(C)(C)C ?
187

Quick one: EC50 for Cc1cc(N2CCOC[C@H]2C)nc(C2CC2)c1C(=O)NCc1ccc(Cl)cc1 ?
40

// returns reported EC50 for input COc1nc(N2CCOC[C@H]2C)cc(C)c1C(=O)NCc1cc(F)cc(F)c1
124

Tell me the measured EC50 of CCSc1nc(N2CCOCC2)cc(C)c1C(=O)NCC(C)(C)C , please.
2610

###

Biological target: KCNQ2/3 channels (Homo sapiens, UniProt O43525+O43526)
Construct: expressed in transfected cells
Assay: Fluorescence assay using a voltage sensitive dye (fluorimetry)
Format: cell-based
Conditions: CHO-K1, plateau effect relative to saturated retigabine (50 μM) = 100%; CHO-K1 cells expressing KCNQ2/3; negative values = antagonistic; read-out: Fluorimetry % efficacy (retigabine = 100%)
Would you kindly list Emax for each of these molecules?
The figure you give is taken to be in %; do not add the unit.

I am curious: what Emax value has been reported for CSc1nc(N2CCOCC2)cc(C)c1C(=O)NCc1ccc(F)cc1 ?
154

Can you share its Emax? I mean this molecule: CCSc1nc(N2CCOCC2)cc(C)c1C(=O)NCc1ccc(F)c(F)c1
169

May I ask what Emax has been recorded for CCc1nc(N2CCOCC2)cc(C)c1C(=O)NCc1cccc(F)c1 ?
166

Need Emax, item CCN(C)c1nc(N2CCOCC2)cc(C)c1C(=O)NCc1ccc(F)c(F)c1
220

Data request, read-out Emax, for CCOc1nc(N2CCOCC2)cc(C)c1C(=O)NCc1cccc(F)c1
144

Record request: Emax value, item CCSc1nc(N2CCOCC2)cc(C)c1C(=O)NCCCc1cccc(F)c1
192

I am curious: what Emax value has been reported for CCSc1nc(N2CCCC2)cc(C)c1C(=O)NCc1cccc(F)c1 ?
162

May I ask what Emax has been recorded for CCSc1nc(N2CCCCC2)cc(C)c1C(=O)NCc1cccc(F)c1 ?
166

Given the molecule CCC(C)c1nc(N2CCOC[C@H]2C)cc(C)c1C(=O)NCc1ccc(F)cc1 (stereo partly drawn) , what is its reported Emax?
189

Request the reported Emax associated with CCN(C)c1nc(N2CCOC[C@H]2C)cc(C)c1C(=O)NCCCC(C)(C)C
228

Given CCSc1nc(N2CCOCC2)cc(C)c1C(=O)NCc1ccc(F)c(COC)c1 , state its recorded Emax.
136

Using the record for COc1nc(N2CCOCC2)cc(C)c1C(=O)NCc1ccccc1-c1ccccc1 , report its Emax.
-83

Dear colleague, I am looking for the recorded Emax of the following molecule: CCSc1nc(N2CCn3cc(C(F)(F)F)nc3C2)cc(C)c1C(=O)NCc1cccc(F)c1
105

Would you mind telling me what Emax value was observed for CCSc1nc(N2CCOC[C@H]2C)cc(C)c1C(=O)NCCCC(C)(C)C ?
246

Value lookup for Emax; key = CCSc1nc(N2CCOCC2CC)cc(C)c1C(=O)NCc1cccc(F)c1 (stereo not drawn)
147

Fill in the blank: the reported Emax of CCSc1nc(N2CCOC[C@@H]2COC)cc(C)c1C(=O)NCc1ccc(Cl)cc1 is ____.
125

May I ask what Emax has been recorded for CCSc1nc(N2CCN3C(=O)CCC3C2)cc(C)c1C(=O)NCc1cccc(F)c1 (stereo not drawn) ?
60

GET /values?readout=Emax&item= CCCc1nc(N2CCOCC2)cc(C)c1C(=O)NCc1ccc(Cl)cc1
163

Which Emax is listed for CCOc1nc(N2CCOCC2)cc(C)c1C(=O)NCc1ccc(F)c(F)c1 ?
127

Using the record for Cc1cc(N2CCOC[C@H]2C)nc(C2CC2)c1C(=O)NCc1ccc(F)cc1 , report its Emax.
197

Which Emax value belongs to CCSc1nc(N2CCOCC2)cc(C)c1C(=O)NCc1cc(F)cc(F)c1 ?
160

Requested field: Emax. Item: CCSc1nc(N2CCN(C3CC3)CC2)cc(C)c1C(=O)NCc1cccc(F)c1
67

Emax lookup needed for CCSc1nc(N2CCOCC2)cc(C)c1C(=O)NCc1ccc(SC(F)(F)F)cc1 , thanks.
135

What value of measured Emax is listed for CCSc1nc(N2CCCc3ccccc32)cc(C)c1C(=O)NCc1cccc(F)c1 ?
81

Could you tell me which Emax is on file for CCSc1nc(NCCOC)cc(C)c1C(=O)NCc1cccc(F)c1 ?
125

Please give the measured Emax for this molecule: CCSc1nc(N(C)C2CCC(OC)CC2)cc(C)c1C(=O)NCc1cccc(F)c1 (stereo not drawn)
133

Emax for Cc1cc(N2CCOC[C@H]2C)nc(C(C)C)c1C(=O)NCc1ccc(Cl)cc1 ?
206

Would you kindly share the measured Emax for CCSc1nc(N(C)Cc2cccnc2)cc(C)c1C(=O)NCc1cccc(F)c1 ?
91

Which value of Emax has been reported for Cc1cc(N2CCOCC2)nc(C(C)C)c1C(=O)NCc1ccc(F)c(F)c1 in the records?
174

Could you tell me which Emax is on file for CCC(C)c1nc(N2CCOCC2)cc(C)c1C(=O)NCc1cccc(F)c1 (stereo not drawn) ?
181

###

Hi there, I'd appreciate the recorded log10 EC50 for every entry that follows.
Target: KCNQ2/3 channels (Homo sapiens, UniProt O43525+O43526)
Construct: expressed in transfected cells
Experiment: Fluorescence assay using a voltage sensitive dye (fluorimetry)
Format: cell-based
Settings: CHO-K1 cells expressing KCNQ2/3; IC50 where % efficacy is negative; read-out: Fluorimetry EC50/IC50
Form field - Quantity: EC50; Unit: µM; Scale: log10

What measured log10 EC50 goes with CCSc1nc(NCCOC)cc(C)c1C(=O)NCc1cccc(F)c1 [Example 36] ?
0.78

Give its log10 EC50 value. Item: CCSc1nc(N(CCOC)Cc2ccc(F)cc2)cc(C)c1C(=O)NCc1cccc(F)c1 [Example 342]
-0.54

Bench note: what log10 EC50 did CCN(C)c1nc(N2CCOCC2)cc(C)c1C(=O)NCc1ccc(Cl)cc1 [Example 191] show?
-0.58

Endpoint output: log10 EC50 of CCSc1nc(N2CCOCC2)cc(C)c1C(=O)NCc1cccc(COC)c1 [Example 131] . Value?
0.10

Which measured log10 EC50 value corresponds to CCCc1nc(N2CCOCC2)cc(C)c1C(=O)NCc1ccc(F)c(F)c1 [Example 321] ?
-1.08

Reported log10 EC50, compound CCSc1nc(N2CCOCC2)cc(C)c1C(=O)NCc1ccc(F)cc1F [Example 107] : ____
-1.06

Reported log10 EC50, compound Cc1cc(N2CCOCC2)nc(N(C)C)c1C(=O)NCc1ccc(C(F)(F)F)cc1 [Example 241] : ____
-0.25

So what's the measured log10 EC50 for this one? CCSc1nc(N2CCOCC2)cc(C)c1C(=O)NCc1ccc(F)cc1-c1ccc(F)cc1 [Example 85]
-0.97

Field request: log10 EC50 | item: CCSc1nc(N2CCOCC2)cc(C)c1C(=O)NCCC(C)C(C)(C)C (centres unmarked) [Example 339]
-1.43

What value of measured log10 EC50 is listed for C/C=C/c1nc(N2CCOCC2)cc(C)c1C(=O)NCc1cccc(F)c1 [Example 9] ?
-0.13

Could you tell me which log10 EC50 is on file for CCSc1nc(N2CCOC[C@@H]2COC)cc(C)c1C(=O)NCc1ccc(F)cc1 [Example 249] ?
-1.09

Value source: patent US9168259B2
